Catalogue of molecules with associated log10(Inhibitory activity)
target_or_test_system: Chymase (Homo sapiens) (UniProt P23946)
assay_procedure: Inhibitory activity against serine protease chymase was determined
Would you kindly interpret these values as log10 of Inhibitory activity expressed in µM?

O=C1ON(S(=O)(=O)c2ccc3ccccc3c2)C(=O)/C1=C/c1ccc(F)cc1 = 2.78
Cc1ccc(-c2nnc(NC(=O)c3ccc4ccccc4c3)s2)o1 = 1.94
O=c1n(S(=O)(=O)c2ccc3ccccc3c2)c2ccccc2n1S(=O)(=O)c1ccc2ccccc2c1 = 0.54

Record request: log10(Inhibitory activity) value, item Cc1ccc(/C=C2\SC(=O)N(CSc3ccc4ccccc4c3)C2=O)o1
2.15

Record request: log10(Inhibitory activity) value, item Cc1ccc(/C=C2\SC(=O)N(C(=O)c3cccc(-c4ccccc4)c3)C2=O)o1
-0.17

* * *

target_or_test_system: Chymase (Homo sapiens)
assay_procedure: Inhibitory activity against serine protease chymase was determined
measurement_type: Inhibitory activity (µM)
// units = µM; emit number, no label

Cc1ccc(C(=O)Nc2nnc(SC(=O)c3ccc(C)cc3)s2)cc1 = 48
O=C1S/C(=C\c2ccsc2)C(=O)N1C(=O)c1ccc2ccccc2c1 = 0.081
O=C(Nc1nnc(Sc2nc3ccccc3s2)s1)c1ccccc1 = 1.34
Cc1ccc(/C=C2\SC(C)(C)N(C(=O)c3ccc4ccccc4c3)C2=O)o1 = 8.91
Cc1ccc(/C=C2\SC(=O)N(CS(=O)(=O)c3ccc4ccccc4c3)C2=O)o1 = 24

// next entry
Record request: Inhibitory activity value, item Cc1ccc(C(=O)Sc2nnc(SC(=O)c3ccc(C)cc3)s2)cc1
3.24

* * *

target_or_test_system: Chymase (Homo sapiens) (UniProt P23946)
Sequence (whole entry): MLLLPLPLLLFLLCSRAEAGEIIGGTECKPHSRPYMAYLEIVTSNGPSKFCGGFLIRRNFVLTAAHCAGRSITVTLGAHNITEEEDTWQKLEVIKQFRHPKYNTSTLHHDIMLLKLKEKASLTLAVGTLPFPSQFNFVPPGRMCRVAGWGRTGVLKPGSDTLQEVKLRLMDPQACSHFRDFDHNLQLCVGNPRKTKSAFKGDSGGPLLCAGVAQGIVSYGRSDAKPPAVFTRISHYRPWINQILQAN
assay_procedure: Inhibitory activity against serine protease chymase was determined
Category scheme (Inhibitory activity): group 1 (below 4 µM), group 2 (4 µM to below 80 µM), group 3 (80 µM or more)

Before answering, review these 3 worked examples.
O=C(Nc1nnc(Sc2nc3ccccc3s2)s1)C(Cl)(Cl)Cl = group 2
O=C(Oc1ccccc1)N1C(=O)S/C(=C\c2ccco2)C1=O = group 1
O=C(Nc1nnc(SCc2nc3ccccc3s2)s1)c1ccc(Cl)cc1 = group 2

Which band does Cc1ccc(C(=O)Nc2nnc(C(=O)c3ccccc3)s2)cc1 fall in?
group 2

Which band does Clc1ccc(CNc2nnc(Sc3nc4ccccc4s3)s2)cc1 fall in?
group 3

Which band does Cc1ccc(/C=C2\SC(=O)N(Cc3ccc4ccccc4c3)C2=O)o1 fall in?
group 3

* * *

target_or_test_system: Chymase (Homo sapiens)
assay_procedure: Inhibitory activity against serine protease chymase was determined
measurement_type: Inhibitory activity (µM)
// units = µM; emit number, no label

Cc1ccc(/C=C2\SCCN(C(=O)c3ccc4ccccc4c3)C2=O)o1 = 4.54
O=C(Nc1nnc(Sc2nc3ccccc3s2)s1)c1ccc(Cl)cc1 = 0.308
O=C1c2ccccc2C(=O)N1S(=O)(=O)c1ccc2ccccc2c1 = 176

// next entry
Form field: Inhibitory activity recorded for O=C1ON(C(=O)c2ccc3ccccc3c2)C(=O)/C1=C/c1ccc(O)c(O)c1 with Chymase (Homo sapiens) (enter value)
53
